Values from patent US7365231B2

Tested on: LOX IMVI
assay.info: NCI panel growth inhibition, sulforhodamine B
Format: cell-based
test.context: Homo sapiens, Melanoma, drug for last 48 h of 72 h
observed.property: pIC50
Give bare numbers, as −log10 of the molar value.

Examples from the recorded data:
compound="Nc1ccc(Oc2ccc(C3(c4ccc(Oc5ccc(N)cc5)cc4)C4CC5CC(C4)CC3C5)cc2)cc1 [2,2-DPAONH2]" recorded_value=5.56
compound="Nc1ccc(Oc2ccc(C3(c4ccc(Oc5ccc(N)c(O)c5)cc4)C4CC5CC(C4)CC3C5)cc2)cc1O [DPA]" recorded_value=5.77
compound="Nc1ccc(Oc2ccc(C34CC5CC(C3)CC(c3ccc(Oc6ccc(N)cc6C(F)(F)F)cc3)(C5)C4)cc2)c(C(F)(F)F)c1 [1,3-DPA/CF3/NH2]" recorded_value=4.75
compound="Nc1ccc(C2(c3ccc(N)cc3)C3CC4CC(C3)CC2C4)cc1 [2,2-DPANH2, 2,2-bis(4-aminophenyl)adamantane]" recorded_value=4.79

# return pIC50 for each item in the list
1. Nc1ccc(Oc2ccc(C34CC5CC(C3)CC(c3ccc(Oc6ccc(N)c(O)c6)cc3)(C5)C4)cc2)cc1O [1,3-DPA/OH/NH2]
2. Nc1ccc(Oc2ccc(C34CC5CC(C3)CC(c3ccc(Oc6ccc(N)cc6)cc3)(C5)C4)cc2)cc1 [1,3-DPAONH2]

5.79
5.61
